system: NCI-H522 lung; experiment: NCI tumour cell line growth inhibition, 48 h
Overview of reported TGI across a group of molecules:

Sample answers from the record:
INSERT INTO assay_data (molecule, result_value) VALUES
  ('CC12CCCC(O)C1CCC1=CC3(CCC12)SCCS3 (stereo not drawn)', '> 10 µM'),
  ('COC(=O)c1cccc2cccc(C(=O)Nc3ccc(C)cc3C)c12', '> 100 µM'),
  ('CCc1[nH]c(=O)nc(N)c1-c1ccc(N2CCCCC2)c([N+](=O)[O-])c1', '> 100 µM'),
  ('N=c1c2ccccc2nc2oc3cc([N+](=O)[O-])ccc3n12', '> 100 µM'),
  ('CCOC(=O)/C(C#N)=C/Nc1c(C)n(C)n(-c2ccccc2)c1=O', '> 100 µM');

Endpoint output: TGI of CC1(n2nc(-c3ccccc3)n(-c3ccccc3)c2=O)CSC1 . Value?
> 100 µM

Endpoint output: TGI of CC1CN1CC(O)C(O)CN1CC1C (stereo not drawn) . Value?
7.08 µM

Endpoint output: TGI of NCCCC[C@@H]1NC(=O)[C@H]2CCCN2C(=O)[C@H](Cc2ccccc2)NC(=O)[C@H](Cc2ccccc2)CNC1=O . Value?
> 100 µM

Endpoint output: TGI of CCC[CH2][Sn]1([CH2]CCC)[O]C(=O)C(C(C)C)N=Cc2ccccc2[O]1 (stereo not drawn) . Value?
0.168 µM

Endpoint output: TGI of CCN(CCCl)c1cc(CN(C)C)cc(NC(=O)c2ccc(C(=O)Nc3cc(CN(C)C)cc(N(CC)CCCl)c3)cc2)c1 . Value?
0.234 µM

Endpoint output: TGI of Nc1ncc(-c2cnn(CCO)c2)c2scc(-c3ccc(NC(=O)Nc4cccc(F)c4)cc3)c12 . Value?
2.29 µM

Endpoint output: TGI of CC(C)N(C(=O)C12CC3CC(CC(C3)C1)C2)C(C)C . Value?
> 50 µM

Endpoint output: TGI of Cc1ccc2nc3c(C(=O)NCCN(C)C)cccc3nc2c1 . Value?
> 100 µM

Endpoint output: TGI of COc1cc2oc(-c3ccc(O)cc3)cc(=O)c2c(OC)c1OC . Value?
> 100 µM

Endpoint output: TGI of CCN(CC)c1ccc(C(=N)c2ccc(N(CC)CC)cc2)cc1 . Value?
0.765 µM

Endpoint output: TGI of CC[O-].CC[O-].O=C1c2ccccc2C(=O)c2c(O)ccc([O-])c21.O=C1c2ccccc2C(=O)c2c(O)ccc([O-])c21.[Ti+4] . Value?
> 100 µM
